Answer each item with its documented growth.
# Test system: HCT-116 colon
# measurement notes: NCI-60 one-dose screen, 48 h (100 = growth as untreated, 0 = no growth, -100 = all killed)
# run parameters: 10 µM
The panel holds about 83,000 compounds, 20% with a hit somewhere; the sample as a whole holds those more often.
Unit % implied. Number only.

Would you mind telling me what growth value was observed for `CCCCCCCCCCCCc1ccc(C(=O)/C=C/C(=O)O)cc1` ? -61.3

Now consider `COc1ccc(S(=O)(=O)Nc2cc(/C=C\c3cc(OC)c(OC)c(OC)c3)ccc2OC)cc1` and answer again. 4.3

Now consider `COc1ccc(-c2nc3sc(-c4ccccc4)c(-c4ccccc4)n3c2/C=C/c2ccc(F)cc2)cc1` and answer again. 77.3

Now consider `O=[N+]([O-])c1cc2ncccc2c2ncccc12` and answer again. 53.5

Now consider `COc1cc(-c2nc(-c3nnc(-c4cccnc4)o3)c3ccccn23)cc(OC)c1OC` and answer again. 96.8

Now consider `CC(=O)/C(=C\c1ccc(Cl)cc1)c1ccccc1` and answer again. 5.06

Now consider `O=C1CC[C@@H](C(=O)N[C@H]2CSSC[C@@H](C(=O)NCCc3ccccc3)NC(=O)[C@H](Cc3ccccc3)NC(=O)[C@@H]3CCCN3C(=O)[C@@H]3CCCN3C2=O)N1` and answer again. 95.8

----------
# Test system: SF-295 CNS
# measurement notes: NCI-60 one-dose screen, 48 h (100 = growth as untreated, 0 = no growth, -100 = all killed)
# run parameters: 10 µM
Compounds without any hit were thinned out: in the full panel of roughly 83,000, 20% have a hit.
Answer each item with its documented growth.
Unit % implied. Number only.

Would you mind telling me what growth value was observed for `O=C(O)CN1C(=O)C=CC1=O` ? 103

Now consider `C=CCNC(=S)NN` and answer again. 88.8

Now consider `CCNC(=S)NN` and answer again. 89.4

Now consider CC(C)=C1CCC(C)C/C1=N\N=C(N)N (centres undefined) and answer again. 98.4

Now consider `COc1ccc(C2=Cc3ccc(OC(C)=O)cc3OC2)cc1` and answer again. 104

Now consider COc1cc(C2C=C(c3ccc(Cl)c(Cl)c3)N=C3SC(C)=CN32)cc(OC)c1OC (centres undefined) and answer again. 75.6

Now consider C[N+]1(CC2CO2)CCCCCC1 (centres undefined) and answer again. 103

Now consider COc1nc2c(c(=O)[nH]1)C(c1ccc(Oc3ccnc4cc(Cl)ccc34)c(OC)c1)C=C(c1cc(OC)c(OC)c(OC)c1)N2 (centres undefined) and answer again. 99.1

Now consider `C[C@]12CC[C@H]3[C@@H](CC=C4C[C@@H](O)CC[C@@]43C)[C@@H]1CC[C@@H]2C(=O)C/C=N/O` and answer again. 97.2

Now consider Nc1nc2c(ncn2C2OC3COP(=O)(O)OC4C(COP(=O)(O)OC2C3O)OC(n2cnc3c(N)ncnc32)C4O)c(=O)[nH]1 (centres undefined) and answer again. 96.9

Now consider COc1ccc(C2C=C(c3ccc(Cl)c(Cl)c3)N=C3SC(C)=CN32)cc1 (centres undefined) and answer again. 87.3

Now consider `COc1ccc2c(c1)/C(=C/c1cc(OC)c(OC)c(OC)c1)C(=O)N2C` and answer again. -30.1

Now consider `C(=C\c1nc2ccccc2s1)/c1ccc(N2CCOCC2)s1` and answer again. 69

Now consider `C/C(=N\NC(N)=S)C(C)(C)O` and answer again. 79.5
